Provide the reported koff of each item.
system_tested: T1, human IL-2Rβ (human, UniProt P14784 27-240, limits assumed)
T1 construct: recombinant protein, coated or immobilised; also called hu IL-2R; IL-2R beta
T1 sequence: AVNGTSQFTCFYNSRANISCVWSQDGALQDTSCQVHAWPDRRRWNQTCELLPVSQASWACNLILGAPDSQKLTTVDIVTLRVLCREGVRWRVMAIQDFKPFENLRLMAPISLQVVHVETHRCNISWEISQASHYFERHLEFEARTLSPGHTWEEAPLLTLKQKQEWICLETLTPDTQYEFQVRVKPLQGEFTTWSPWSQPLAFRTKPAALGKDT
procedure_text: SPR, P.E. off-rate
Answers are plain numbers, in s⁻¹.

Below are worked cases with known answers.
{"binder": "FJ1427_P035MP02B06 (VHH, soluble VHH in periplasmic extract; also called clone nr) VHH: QVQLVESGGGLVQPGESLGLSCAASGFTFSNYAMSWVRQAPGKGLEWVSSITGAGRGTDYADSVKGRFTISRDNAKNTLYLQMNSLKPEDTAVYYCAKYSSGTYYPPTPVRGTDYRGQGTQVTVSS", "data_value": 0.0046}
{"binder": "FJ1427 P035MP02C03 (VHH, soluble VHH in periplasmic extract; also called 14-MP02C03; clone nr) VHH: EVQLVESGGGLVQTGGSLRLSCAASGSQFINDVMGWYRQVPGKQRELVADMDDTGSTEYADSVKGRFTILRDSVKNTAYLQMSNLKPEDTGVYYCKAGLWIKGRHFDYWGQGTQVTVSS", "data_value": 0.000714}
{"binder": "FJ1427 P035MP02D05 (VHH, soluble VHH in periplasmic extract; also called clone nr) VHH: QVQLVESGGGLVQPGESLGLSCAASGFTFSNYAMSWVRQAPGKGLEWVSSITGAGRGTDYADSVKGRFTISRDNAKNTLYLQMNSLKPEDTAVYYCAKYSSGTYYPPTPVRGTDYRGQGTQVTVSS", "data_value": 0.00279}

For the next question, use this binder.
Looking up FJ1427 P035MP02C06 (VHH, soluble VHH in periplasmic extract; also called clone nr) VHH: QLQLVESGGGLVQPGGSLELSCAASGFTFSNYAMSWVRQAPGKGLEWVSSITGFGRGTDYADSVKGRFTISRDNAKNTLYLQMNSLKPEDTAVYYCARYSSSTYYPPTPARGRDYRGQGTQVTVSS , I see its koff listed as 0.00217

This collection of values is drawn from patent US20240409645A1.
